# assay-name: BSK_SAg_Proliferation: Cell Proliferation Assessment in the BioMAP Diversity Plus: SAg Assay (AID 2283095);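 also: relative cell number as total protein by SRB absorbance in sub-confluent culture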
# protocol-conditions: primary human HUVEC with PBMC
Calls of active or inactive are those of the source. The calls were made as follows: active = hit-call score of the fitted dose curve at least 0.9, where 1 is the maximum; inactive = score below 0.9.
Tick one outcome: active, inactive

compound	group
COc1cc(C=O)cc2c1[C@H](COC(N)=O)[C@]1(OC(C)=O)ON2C[C@H]2[C@@H]1N2C(C)=O	active
Cc1cccc(N)c1N	inactive
Nc1ccc(Oc2ccc(N)cc2)cc1	inactive
CS(=O)(=O)NC(=O)c1cc(Oc2ccc(C(F)(F)F)cc2Cl)ccc1[N+](=O)[O-]	inactive
Clc1ccc(C(c2ccc(Cl)cc2)C(Cl)(Cl)Cl)cc1	active

Consider the additional compound presented here.
// query I would be grateful if you could indicate the recorded call for CC(C)(OOC(C)(C)c1ccccc1)c1ccccc1 .
// result active
